# Tested on: DU-145 prostate
# assay procedure: NCI tumour cell line growth inhibition, 48 h
readout type: TGI

compound: N#Cc1c(-c2ccc(Cl)cc2)cc(-c2nc3ccccc3[nH]2)nc1N
TGI: 20.2 µM
--
compound: O=C(Nc1ccc(-c2ccnc(Nc3ccc(N4CCOCC4)cc3)n2)cc1)C1CCCN1 (centres undefined)
TGI: 37.4 µM
--
compound: CC(C)CC(NC(=O)C(COc1ccc([N+](=O)[O-])cc1)Cc1ccccc1)C(=O)Nc1ccccc1 (centres undefined)
TGI: > 100 µM
--
compound: CCOC(=O)c1c(-c2ccc(OC)c(O)c2)c(C#N)c(=S)n(C2OC(CO)C(O)C(O)C2O)c1-c1ccccc1 (centres undefined)
TGI: > 100 µM
--
compound: CCCCCCCCC[n+]1cccc(C2C(C(=O)OCC)=C(C)NC(C)=C2C(=O)OCC)c1
TGI: 25.9 µM
--
compound: O=S(=O)(O)c1ccc(Nc2ccnc3cc(Cl)ccc23)cc1
TGI: > 100 µM

## Input Fill in the recorded TGI for this compound, with DU-145 prostate as test system: `O=C(O)c1cc2c(c3ccsc13)-c1ccccc1CC2`
## Output > 100 µM

## Input Fill in the recorded TGI for this compound, with DU-145 prostate as test system: `C[C@H]1CC2=CC(=O)CC[C@]2(C)[C@H]2CC[C@@]3(C)[C@@H](CC[C@]3(C)O)[C@H]12`
## Output > 96.3 µM

## Input Fill in the recorded TGI for this compound, with DU-145 prostate as test system: CCOC(=O)CCC(C(=O)OCC)n1nnc2cc(Nc3c(C)[n+]([O-])c4ccc(Cl)cc4[n+]3[O-])ccc21 (centres undefined)
## Output > 100 µM

Each recorded value in this set is attributed to PubChem BioAssay (NCI).
